src = paper PMC9358669

Entries and their measured IC50 follow.
target: Chymotrypsin (Bos taurus, UniProt P00766); construct: purchased Sigma-Aldrich; experiment: Chymotrypsin inhibition, fluorogenic substrate assay (Suc-Ala-Ala-Pro-Phe-AMC); type: biochemical; details: Supplementary Table 5; compounds of this study; read-out: Chymotrypsin IC50
Reply numerically in nM, unit not repeated.

Use the examples below as a reference point.
[[record]]
molecule = "CCCC(=O)N1CCCC1C(=O)NC(C(=O)NC1C(=O)NC(CC(C)C)C(=O)NC2CCC(O)N(C2=O)C(Cc2ccccc2)C(=O)N(C)C(Cc2ccc(O)cc2)C(=O)NC(C(C)C)C(=O)OC1C)C(C)OC(=O)C1CCCN1C(=O)CCC (stereo not shown) [Rivulariapeptolide 1185, rivulariapeptolide 1185]"
reported_result = 13.2

[[record]]
molecule = "CC=C1NC(=O)[C@@H](NC(=O)[C@@H](NC(=O)[C@@H]2CCCN2C(=O)CCC)[C@@H](C)OC(=O)C2CCCN2C(=O)CCC)[C@@H](C)OC(=O)[C@H](C(C)C)NC(=O)[C@H](Cc2ccc(O)cc2)N(C)C(=O)[C@H](CC(C)C)N2C(=O)[C@H](CC[C@H]2O)NC1=O (stereo partly shown) [Rivulariapeptolide 1121, rivulariapeptolide 1121]"
reported_result = 35.5

[[record]]
molecule = "C/C=C1\\NC(=O)[C@@H](NC(=O)[C@@H](NC(=O)[C@H](C)NC(=O)CCC)[C@@H](C)O)[C@@H](C)OC(=O)[C@H](C(C)C)NC(=O)[C@H](Cc2ccc(O)c(Br)c2)N(C)C(=O)[C@H](Cc2ccccc2)N2C(=O)[C@H](CC[C@H]2O)NC1=O [Molassamide B, molassamide B]"
reported_result = 24.7


Moving on to the next molecule.
What value of IC50 has been recorded for this entry: CC=C1NC(=O)[C@@H](NC(=O)[C@@H](NC(=O)[C@@H]2CCCN2C(=O)CCC)[C@@H](C)O)[C@@H](C)OC(=O)[C@H](C(C)C)NC(=O)[C@H](Cc2ccc(O)cc2)N(C)C(=O)[C@H](Cc2ccccc2)N2C(=O)[C@H](CC[C@H]2O)NC1=O [Rivulariapeptolide 988, rivulariapeptolide 988]
95.5
